- System: Bacillus subtilis M45 (rec−)
- Assay Procedure: Bacillus subtilis rec-assay, M45
- Type: cell-based
- Particulars: B. subtilis M45; 256 µg per disc (NOQ 2 µg per disc)
Experimental Readout: inhibition zone diameter (mm)
Give just the number in mm; leave the unit off.

O=[N+]([O-])c1cc([N+]2=C(Nc3ccc(Cl)c(Cl)c3)[S][Cu-2]23[S]C(Nc2ccc(Cl)c(Cl)c2)=[N+]3c2ccc(Cl)c([N+](=O)[O-])c2)ccc1Cl 18

# context switch: different molecule, same inhibition zone diameter
Record O=[N+]([O-])c1cc([N+]2=C(Nc3ccccc3Br)[S][Cu-2]23[S]C(Nc2ccccc2Br)=[N+]3c2ccc(Cl)c([N+](=O)[O-])c2)ccc1Cl , field inhibition zone diameter: 12
